Target: Rat FAAH (Rattus norvegicus, UniProt P97612)
Sequence (P97612 whole entry): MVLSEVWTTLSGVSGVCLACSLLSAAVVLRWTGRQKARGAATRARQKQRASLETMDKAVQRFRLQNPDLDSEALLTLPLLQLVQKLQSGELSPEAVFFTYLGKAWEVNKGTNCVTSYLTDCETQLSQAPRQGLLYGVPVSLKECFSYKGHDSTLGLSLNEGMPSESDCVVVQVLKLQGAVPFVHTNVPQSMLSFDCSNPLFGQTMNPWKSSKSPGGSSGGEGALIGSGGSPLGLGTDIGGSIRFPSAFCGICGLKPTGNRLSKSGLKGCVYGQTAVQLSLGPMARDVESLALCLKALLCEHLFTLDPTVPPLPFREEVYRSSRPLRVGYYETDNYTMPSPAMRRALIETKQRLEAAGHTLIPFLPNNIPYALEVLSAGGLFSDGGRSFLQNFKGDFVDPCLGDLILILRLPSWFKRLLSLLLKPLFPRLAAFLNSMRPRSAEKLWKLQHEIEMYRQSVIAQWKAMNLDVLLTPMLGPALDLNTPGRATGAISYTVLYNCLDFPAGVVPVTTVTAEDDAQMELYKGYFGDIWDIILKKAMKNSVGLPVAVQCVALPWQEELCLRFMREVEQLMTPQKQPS
measuredEndpoint: pIC50
One number for each entry, as −log10 of the molar value.

{"chemicalStructure": "COc1ccc(-c2nsc(N3CCN(C(=O)Nc4ccccc4)CC3)n2)cc1", "pIC50": 6.31}

Here is another molecule to look at.
Quick note, pIC50 for O=C(Nc1ccccc1)N1CCN(c2nc(-c3ccc(Cl)cc3)ns2)CC1 landed at 6.46

====

Target: UniProtKB O00519
Sequence (O00519 whole entry): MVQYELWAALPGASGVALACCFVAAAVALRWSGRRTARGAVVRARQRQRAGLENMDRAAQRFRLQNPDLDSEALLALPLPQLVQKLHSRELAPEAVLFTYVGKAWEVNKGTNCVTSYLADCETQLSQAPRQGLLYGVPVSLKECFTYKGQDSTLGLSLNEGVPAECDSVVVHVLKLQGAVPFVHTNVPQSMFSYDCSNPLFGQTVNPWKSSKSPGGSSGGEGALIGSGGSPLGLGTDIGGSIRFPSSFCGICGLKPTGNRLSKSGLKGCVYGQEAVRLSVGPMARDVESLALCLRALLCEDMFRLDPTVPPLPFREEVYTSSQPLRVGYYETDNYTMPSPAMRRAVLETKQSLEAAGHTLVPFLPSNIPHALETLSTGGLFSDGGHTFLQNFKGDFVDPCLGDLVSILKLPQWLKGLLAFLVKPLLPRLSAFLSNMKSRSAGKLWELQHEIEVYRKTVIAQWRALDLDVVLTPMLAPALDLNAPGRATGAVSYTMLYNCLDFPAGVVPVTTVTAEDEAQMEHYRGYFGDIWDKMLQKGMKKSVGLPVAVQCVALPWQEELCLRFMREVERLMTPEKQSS
Experiment: Assay Method 1: FAAH assay, T84 cell homogenate, 3H-anandamide hydrolysis
Type: biochemical
Set-up: T84 frozen pellets (contents of 1-4×15 cm culture dishes) were homogenized in 300 mL of FAAH assay buffer; endogenous in cells; host or cells: T84 cells (homogenate)
Conditions: 3H-AEA tracer 200 nM, rt 1 h
pIC50: −log10 of the molar value.
measuredEndpoint: pIC50

Worked cases, pIC50 given:
{"chemicalStructure": "CN(C)c1ccc(NC(=O)N2CCN(c3nc(-c4ccccc4)ns3)CC2)cc1", "measuredEndpoint": "pIC50", "result": "< 5.00"}
{"chemicalStructure": "O=C(Nc1ccccc1)N1CCN(c2nc(-c3ccc(Cl)cc3)ns2)CC1", "measuredEndpoint": "pIC50", "result": "< 5.00"}

Here is another molecule to look at.
Quick note, pIC50 for CC(C)c1ccccc1NC(=O)N1CCN(c2nc(-c3ccccc3)ns2)CC1 landed at < 5.00

Hello, the source for this data is patent US7541359B2, in case you need it.
